Biological target: T1, human CD4 on human PBMCs (human, UniProt P01730 26-458)
T1 construct: whole, on cells; the CD4-positive gate was set with the control antibodies OKT4 and RPA-T4; also called hCD4
Test: FACS, clonal hybridoma supernatant on PBMCs
result_type: % CD4 Stain (%)
Just the number please, in %, no unit attached.

Data point: 75110_04F22A (antibody, V domains shown, Tested as clonal hybridoma supernatant of an AlivaMab Mouse Kappa antibody (human variable regions, kappa; detected with anti-mouse Fc)) VH: EVQLVESGGGLVQPGGSLRLSCAASGFTFSSYDIHWVRQATGKGLEWVSTIGTAGDTYYPGSVKGRFTISRENAKNSLYLQMNSLRAGDTAVYYCARGGYYYYGMDVWGQGTTVTVSS VL: EIVLTQSPGTLSLSPGERATLSCRASQSVYSSYLAWYQQKPGQAPRLLIYGASSRATGIPDRFSGSGSGTDFTLTISRLEPEDFAVYYCQQFGTSPFTFGPGTKVDIK ; % CD4 Stain = 37.7

Now look at this entry.
Data point: 75110_03L12A (antibody, V domains shown, Tested as clonal hybridoma supernatant of an AlivaMab Mouse Kappa antibody (human variable regions, kappa; detected with anti-mouse Fc)) VH: QVQLQQWGAGLLKPSETLSLTCAVYGGSFSGYYWSWIRQPPGKGLEWIGEINHSGSTNYNPSLKSRVTISVDTSENQFSLTLISVTAADTAVYYCVRLINWFDPWGQGTLVTVSS VL: DIQMTQSPSSVSASVGDRVTITCRASQDISNWLAWYQQKPGKAPKLLIFAASSLQSGVPSRFSGSGSGTDFTLTISSLQPDDFATYYCQQANSFPYTFGQGTNLGIK ; % CD4 Stain = 36.8
